Data provenance: patent US20230203060A1

- target_entity: KRAS G12C (Homo sapiens, UniProt P01116, G12C)
- Construct: purchased Reactionbiology
- Sequence (P01116 1-188 isoform P01116-2 G12C): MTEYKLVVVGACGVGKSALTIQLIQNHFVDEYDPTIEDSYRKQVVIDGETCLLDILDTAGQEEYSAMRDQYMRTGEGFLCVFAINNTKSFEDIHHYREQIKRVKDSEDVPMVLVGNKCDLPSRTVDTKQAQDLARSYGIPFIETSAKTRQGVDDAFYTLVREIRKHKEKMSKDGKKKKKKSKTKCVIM
- experimental_details: KRAS G12C NEA-HTRF experiment (SOS1-catalyzed displacement of GDP by GTP)
- Format: biochemical
- Excerpt: […]
pIC50: −log10 of the molar value.
Catalogue of pIC50 values
readout_type: pIC50

* C=CC(=O)N1CCN2C(=O)c3c(N4CCC[C@@]4(C)CO)nc(-c4c(O)cccc4F)c(Cl)c3OC[C@H]2C1 [Z279-2] | 7.54
* C=CC(=O)N1CCN2C(=O)c3c(N4C[C@H](N(C)CCO)CC4(C)C)nc(-c4ccccc4F)c(Cl)c3OC[C@H]2C1 (single isomer, unassigned) [Z658-2] | 6.85
* C=CC(=O)N1CCN2C(=O)c3c(N4CC(=O)N(C)CC4C)nc(-c4c(O)cccc4F)c(Cl)c3OC[C@H]2C1 (single isomer, unassigned) [Z221-1] | 7.85
* C=CC(=O)N1CCN2C(=O)c3c(N4C[C@H](N(C)C)CC4(C)C)nc(-c4c(F)ccc(F)c4O)c(Cl)c3OC[C@H]2C1 (single isomer, unassigned) [Z475-2] | 7.10
* C=CC(=O)N1CCN2C(=O)c3c(N4CC[C@@H]4C)nc(-c4c(O)cccc4F)c(Cl)c3OC[C@H]2C1 [Z68] | 7.06
* C=CC(=O)N1CCN2C(=O)c3c(N4C[C@@H](N5CC(F)C5)CC4(C)C)nc(-c4ccccc4F)c(Cl)c3OC[C@H]2C1 [Z480-1] | 7.75
